Consider the following compounds; for each one, report its inhibition at 10 µM.
# systemTested: HIV-1 protease (Human immunodeficiency virus type 1 group M subtype B, UniProt P04585)
# Construct: The protease (or proteinase), consisting of only 99 amino acids, is among the smallest enzymes known
# testDescription: In vitro HIV protease inhibitory assay (HIV Protease FITC Assay)
# Type: biochemical
# measurementConditions: HIV-1 Dose 10.000 uM; read-out: HIV-1 Protease % Inhib
Numbers only, in %.

CCC(CCc1ccccc1)c1cc(O)c(C(c2ccccc2)C2CC2)c(=O)o1 (centres unmarked) = 99.6

Dear reader, for each entry below, please note its inhibition at 10 µM.
1. CCC(Cc1ccccc1)c1cc(O)c(C(c2cccc(NC(=O)Cc3cccnc3)c2)C2CC2)c(=O)o1 (centres unmarked)
2. CCCC1(Cc2ccccc2)CC(O)=C(C(C=Cc2ccccc2)c2ccccc2)C(=O)O1 (centres unmarked)
3. Cc1noc(C)c1CCc1cc(O)c(C(c2ccccc2)C2CC2)c(=O)o1 (centres unmarked)
4. CCC(c1ccccc1)c1c(O)cc(Cc2ccccc2)oc1=O (centres unmarked)
5. CC(CC1CC1)(c1cc(O)c(C(C2CC2)C2CC2)c(=O)o1)C1CC1 (centres unmarked)
6. CCC(CCC(F)(F)F)c1cc(O)c(C(c2ccccc2)C2CC2)c(=O)o1 (centres unmarked)

[101, 88.7, 89.4, 38.7, 91, 99.1]

Report inhibition at 10 µM for CCC(Cc1ccc(C(F)(F)F)cc1)c1cc(O)c(C(c2ccccc2)C2CC2)c(=O)o1 (centres unmarked) please.
89.7

All figures here come from patent EP1203770A1.
